FYI, the data here is from ChEMBL document CHEMBL1201862.

Test system: COLO 205
protocol: NCI tumour cell line growth inhibition, 48 h
Activity calls are given as the source filed them. Cut-off read from the data, not from the text of the source: active = GI50 up to about 1.1 µM and inactive = higher.
// reported GI50 per item

Examples from the recorded data:
| compound | recorded.value |
| --- | --- |
| O=[N+]([O-])/C(C(Cl)=C(Cl)Cl)=C(\N1CCCCC1)n1cncn1 | 15.7 µM (inactive) |
| Cc1ccc2nc(-c3ccc(N)c(Br)c3)sc2c1 | 55.8 µM (inactive) |
| O=C1C2C3C=CC(C2C(=O)N1CN1CCSCC1)C1C2C(=O)N(CN4CCSCC4)C(=O)C2C31 (stereo not given) | 56.5 µM (inactive) |

// query // lookup GI50 for `C=C1CCCC(C)(C)[C@@H]1CC/C(C)=C/Cn1c2cccc(=O)c-2nc2ccccc21`
// result 1.96 µM (inactive)

// query Same again, this time with `Cc1cc(N(CCC#N)CCC#N)ccc1/C=C(\NC(=O)/C=C/c1ccccc1)NC(=O)Nc1ccccc1C`
// result > 100 µM (inactive)
